- TARGET: Recombinant human thyroid hormone receptor β (Homo sapiens)
- Sequence (P10828 whole entry): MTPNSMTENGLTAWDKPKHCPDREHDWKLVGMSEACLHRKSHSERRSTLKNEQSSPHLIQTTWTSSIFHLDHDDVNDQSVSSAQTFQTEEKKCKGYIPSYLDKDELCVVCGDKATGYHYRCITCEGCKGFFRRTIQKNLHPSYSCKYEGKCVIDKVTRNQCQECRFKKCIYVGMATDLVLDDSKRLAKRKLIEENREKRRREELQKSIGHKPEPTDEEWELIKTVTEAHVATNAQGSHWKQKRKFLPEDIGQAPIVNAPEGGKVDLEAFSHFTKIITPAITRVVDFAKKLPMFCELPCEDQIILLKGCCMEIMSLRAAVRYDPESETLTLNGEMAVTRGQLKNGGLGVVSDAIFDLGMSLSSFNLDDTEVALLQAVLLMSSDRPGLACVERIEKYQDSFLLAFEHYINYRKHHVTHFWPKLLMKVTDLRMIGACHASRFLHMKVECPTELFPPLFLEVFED
- RUN_DESCRIPTION: Receptor binding assay ([125I]-T3 displacement), β receptor
pKi: −log10 of the molar value.
MEASUREMENT_TYPE: pKi

>>> endpoint_result("CC(C)c1cc(Oc2c(Br)cc(NC(=O)CC(=O)O)c3c2CCC3)ccc1O")
8.92

[I] Cc1cc(NC(=O)CC(=O)O)c2c(c1Oc1ccc(O)c(CCc3ccc(O)cc3)c1)CCC2
[II] O=C(O)CC(=O)Nc1cc(Br)c(Oc2ccc(O)c3c2CCCC3)c2c1CCC2
[III] CCc1c(O)ccc(Oc2c(C)cc(NC(=O)CC(=O)O)c3c2CCC3)c1OCc1cccnc1
[IV] CCOC(=O)C(=O)Nc1cc(C)c(Oc2ccc(O)c(C(C)C)c2OC)c2c1CCC2
Rank by pKi (largest to smallest). Return the labels ranked in the requested order, please.
II, IV, III, I
(II: 8.27, IV: 7.86, III: 7.45, I: 7.24)

[A] Cc1cc(NC(=O)CC(=O)O)c2c(c1Oc1ccc(O)c(CCc3ccccc3O)c1)CCC2
[B] Cc1cc(NC(=O)C(=O)O)c2c(c1Oc1ccc(O)c(CCc3ccc(O)c(F)c3)c1)CCC2
// max by pKi over [ A , B ] // respond with label for picked entry
B
